B1: PAIP1 peptide 126-141 (Polyadenylate-binding protein-interacting protein 1), 16-mer library wild type / PABPC1 PABC (PABPC1 PABC domain, residues 544-623) (parent)
chain 1: SKLSVNAPEFYPSGYS
chain 2: PLTASMLASAPPQEQKQMLGERLFPLIQAMHPTLAGKITGMLLEIDNSELLHMLESPESLRSKVDEAVAVLQAHQAKEAA

Variants of: B1
Test: proteomic peptide phage display deep mutational scan (ProP-PD DMS): M13 P8 16-mer library selected against immobilised GST-tagged bait for four days (rounds), NGS of the eluted pools per day and pseudo-replica
Conditions: with PABPC1 PABC (PABPC1 PABC domain, residues 544-623); bait immobilised on MaxiSorp plates (10 µg), library pre-cleared on GST, 2 h binding at 4 °C, five washes; one round per day, days 1-4; value from days 2 and 3; keep out of graded; scale: average fractional NGS count over selection days 2 and 3
The class of a record is decided solely by its measured screen value; consult A = under 0.0003, B = from 0.0003 up to 0.0007, C = 0.0007 and over

var | answer.label
chain 1 S1V | A
chain 1 P8V | B
chain 1 Y15Q | B
chain 1 S1Q | B
chain 1 V5G | A
chain 1 Y15K | C
chain 1 S4G | C
chain 1 S4M | A
chain 1 N6G | A
chain 1 A7H | A
chain 1 E9S | C
chain 1 S13G | A
chain 1 S13H | B
chain 1 Y15H | A
chain 1 S1A | C
chain 1 Y15S | C
chain 1 P8M | B
chain 1 P12N | A
chain 1 K2A | B
chain 1 F10Q | A
chain 1 A7S | B
chain 1 G14R | A
chain 1 P12H | B
chain 1 G14M | B
chain 1 V5R | A
chain 1 S1L | C
chain 1 N6A | B
chain 1 S4Q | C
chain 1 Y15V | C
chain 1 N6R | B
chain 1 S4K | B
chain 1 N6E | A
chain 1 P8N | C
chain 1 L3P | A
chain 1 Y15L | A
chain 1 S4T | B
chain 1 P8L | B
chain 1 P8Y | C
chain 1 G14V | B
chain 1 V5K | A
chain 1 P8I | B
chain 1 S13V | A
chain 1 A7G | C
chain 1 G14P | C
chain 1 K2W | B
chain 1 E9F | B
chain 1 E9D | C
chain 1 P12V | A
chain 1 Y15E | A
chain 1 P8R | B
chain 1 E9H | C
chain 1 S13L | A
chain 1 S13F | B
chain 1 V5L | C
chain 1 P8A | A
chain 1 Y15A | C
chain 1 A7N | B
chain 1 G14A | C
chain 1 Y11Q | C
chain 1 P12Y | C
chain 1 E9M | C
chain 1 Y11D | B
chain 1 G14Y | C
chain 1 S1P | A
chain 1 N6V | A
chain 1 A7P | A
chain 1 G14S | A
chain 1 E9I | A
chain 1 A7T | C
chain 1 L3V | B
chain 1 F10D | A
chain 1 P12A | C
chain 1 V5Q | C
chain 1 K2H | A
chain 1 G14Q | A
chain 1 S4E | A
chain 1 S1M | C
chain 1 S4V | A
